protocolDetails: amyloid nucleation score (Sup35N fusion, yeast selection) (log enrichment); library NNK3; higher = more nucleation; inactive = no reads after selection;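 note: zero at mode of non-aggregating sequences after 7 days selection at 30°C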
measuredProperty: amyloid nucleation score

Some sequences with recorded amyloid nucleation score:
biopolymerSequence | amyloid nucleation score
KPNFEPSLAW | inactive
MVLYYSLILFAHCLKLARHN | inactive
GNWQCFTEGRTPCYFCCITT | inactive
ISNLRYRSWAYLVRSFCSVL | inactive
LRYLIYTNYFRLFAWLNSCK | inactive

Measured amyloid nucleation score, "WENCKFWRTLPISVHEGHLD" : inactive

Consider "CRLELPMGSTTDDDRGQKVD" . Its measured amyloid nucleation score is -0.014

// amyloid nucleation score lookup, sequence = "RSVVLLAMMSGYRDISIFRT" , result: inactive

====

protocolDetails: amyloid nucleation score (Sup35N fusion, yeast selection) (log enrichment); library NNK1; higher = more nucleation; inactive = no reads after selection
Values of amyloid nucleation score greater than or equal to 0.2 map to satisfied; values below map to not satisfied.

substance | label
HVLLYCANFVIYTDVA | satisfied
NDRTGCVVGLHCEMNI | satisfied
ISWRNYWY | satisfied
IRRYPAFFFNVYPSTSMFCS | not satisfied
NKFYCVI | not satisfied
ILAIKWTSVWCMESDFPIEV | not satisfied
LNVNRWYTISL | satisfied
LSTGWESNLEGCCENWGGLK | not satisfied
LTHYEFGTFFYKVWSNDRHK | satisfied
RCVSAFLLLFSMHRHG | satisfied

## Input Reported amyloid nucleation score at or above 0.2? "CSYRWVELLCSC"
## Output satisfied

## Input Is amyloid nucleation score at least 0.2? Consider "PLHAANDLSCPENLDVWYHE"
## Output not satisfied

## Input Could you please find out whether "FVFSGFYT" has amyloid nucleation score that meets 0.2 or exceeds it?
## Output satisfied

## Input Textbook exercise: given the entry "IFSGECHVYVGSRQGWALVI" , state whether its amyloid nucleation score is greater than or equal to 0.2.
## Output not satisfied

## Input Reported amyloid nucleation score reaches at least 0.2 for "TISSLNLTRLSLDIFDFQSQ" ?
## Output satisfied

## Input Does amyloid nucleation score meet or surpass 0.2 for "VCYLGECRGHAIMEYWWSWR" ?
## Output satisfied

## Input # bool: amyloid nucleation score of "GWDYLFFLFTFCYV" >= 0.2
## Output not satisfied

## Input Given "NACFSIKQTYWNVT" , state whether its amyloid nucleation score is at least 0.2.
## Output satisfied

## Input # bool: amyloid nucleation score of "ACLCVIRMFHYNGLRH" >= 0.2
## Output satisfied

## Input Is amyloid nucleation score at least 0.2? Consider "LKSLLNSSGVTLGEVLRMGV"
## Output not satisfied

## Input Tell me whether amyloid nucleation score is at least 0.2 here: "SFTWRQNQVGNA"
## Output satisfied

## Input Please indicate if the recorded amyloid nucleation score for "EFRQMVVSSGSDERGERDKG" meets or exceeds 0.2.
## Output not satisfied

## Input Can "IGCQLNIRVCLKVILLYVEA" be said to have amyloid nucleation score at or above 0.2?
## Output satisfied

## Input Decide: is the reported value of amyloid nucleation score for "RWMELMALSRKTPGRQKARC" equal to or greater than 0.2?
## Output not satisfied

## Input Is it the case that "EIDNLHWVLVVNYPTSQFKR" has amyloid nucleation score reaching or exceeding 0.2?
## Output not satisfied

## Input Say whether "HHLVISCDSLENASYRLCIQ" shows amyloid nucleation score of 0.2 or more.
## Output satisfied

## Input Would you say "YMLLTLGLTTLVCNSHRLVL" shows amyloid nucleation score at minimum 0.2?
## Output not satisfied

## Input Test whether the substance "VNGARRQFRRLMPCLEAWVS" records amyloid nucleation score of 0.2 or higher.
## Output not satisfied

## Input Is the recorded value of amyloid nucleation score equal to or greater than 0.2 for this substance? "DCHVRCLRQV"
## Output satisfied

## Input Check if amyloid nucleation score >= 0.2 (inclusive). Item: "VGSPGCMGLVTLNHVP"
## Output satisfied

## Input Quick check, amyloid nucleation score >= 0.2? "KACDRFNLTYKTVSVRMGDC"
## Output satisfied

## Input Textbook exercise: given the entry "CEFLIFTFRVSGEVLLQSRA" , state whether its amyloid nucleation score is greater than or equal to 0.2.
## Output satisfied
